tested on: gastric adenocarcinoma cell line SGC-7901; assay: MTT antiproliferative assay, SGC-7901; assay type: cell-based; conditions: Homo sapiens, 72 h drug exposure, triplicate, read-out: Antiproliferative activity (IC50 ± SD) SGC-7901
pIC50: −log10 of the molar value.

{"chemical-structure": "COc1cc(-n2nc(C)cc2-c2ccc(C)cc2)cc(OC)c1OC", "assay-system": "gastric adenocarcinoma cell line SGC-7901", "pIC50": 6.28}
{"chemical-structure": "COc1ccc(-c2cc(C)nn2-c2cc(OC)c(OC)c(OC)c2)cc1[N+](=O)[O-]", "assay-system": "gastric adenocarcinoma cell line SGC-7901", "pIC50": 5.28}
{"chemical-structure": "COc1ccc(-c2c(Br)c(C)nn2-c2cc(OC)c(OC)c(OC)c2)cc1N", "assay-system": "gastric adenocarcinoma cell line SGC-7901", "pIC50": 4.84}
{"chemical-structure": "COc1ccc(-c2cc(C)nn2-c2cc(OC)c(OC)c(OC)c2)cc1", "assay-system": "gastric adenocarcinoma cell line SGC-7901", "pIC50": 6.14}
{"chemical-structure": "COc1cc(-c2cc(C)nn2-c2cc(N)ccc2C)cc(OC)c1OC", "assay-system": "gastric adenocarcinoma cell line SGC-7901", "pIC50": 5.61}
